# SYSTEM: Tryptase (Homo sapiens, UniProt Q9BZJ3+Q15661+Q9NRR2)
# MEASUREMENT NOTES: Inhibition of human tryptase.
# Assay type: protein assay
OBSERVATION TYPE: IC50 (µM)

Example entries and their recorded answers appear below.
{"COMPOUND": "Cc1ccc(CN)cc1NC(=O)CN1CCCCC(NC(=O)c2ccc(-c3ccccc3)cc2)C1=O (stereo not given)", "IC50 [µM]": 0.074}
{"COMPOUND": "NCc1cccc(NC(=O)CN2CCCCC(NC(=O)c3ccc(-c4ccc(Cl)c(Cl)c4)cc3)C2=O)c1 (stereo not given)", "IC50 [µM]": 2.1}
{"COMPOUND": "CCc1ccc(C(=O)NC2CCCCN(CC(=O)Nc3cccc(CN)c3)C2=O)cc1 (stereo not given)", "IC50 [µM]": 4.6}
{"COMPOUND": "NCc1cccc(NC(=O)CN2CCCCC(NC(=O)c3cnc4ccccc4c3)C2=O)c1 (stereo not given)", "IC50 [µM]": 15}
{"COMPOUND": "NCCc1ccc(NC(=O)CN2CCCCC(NC(=O)c3ccc(-c4ccccc4)cc3)C2=O)cc1 (stereo not given)", "IC50 [µM]": 11}
{"COMPOUND": "NCc1cccc(NC(=O)CN2CCCCC(NC(=O)CC(c3ccccc3)c3ccccc3)C2=O)c1 (stereo not given)", "IC50 [µM]": 0.2}
{"COMPOUND": "NCc1cccc(NC(=O)CN2CCCCC(NC(=O)Cc3ccc(-c4ccccc4)cc3)C2=O)c1 (stereo not given)", "IC50 [µM]": 5.2}
{"COMPOUND": "NCC1CCC(NC(=O)CN2CCCCC(NC(=O)c3ccc(-c4ccccc4)cc3)C2=O)CC1 (stereo not given)", "IC50 [µM]": 12}

[P] NCCCCCNC(=O)CN1CCCCC(NC(=O)c2ccc(-c3ccccc3)cc2)C1=O (stereo not given)
[Q] CCc1ccc(-c2ccc(C(=O)NC3CCCCN(CC(=O)Nc4cccc(CN)c4)C3=O)cc2)cc1 (stereo not given)
[R] NCc1cccc(NC(=O)CN2CCCCC(NC(=O)COc3ccc4ccccc4c3)C2=O)c1 (stereo not given)
[S] Cc1ccc(-c2ccc(C(=O)NC3CCCCN(CC(=O)Nc4cccc(CN)c4)C3=O)cc2)cc1 (stereo not given)
[T] COc1ccc(CN)cc1NC(=O)CN1CCCCC(NC(=O)c2ccc(-c3ccccc3)cc2)C1=O (stereo not given)
Req: Hey, quick one: sort these by IC50, low to high? Give your ranking as a list of the labels in the requested order.
Resp: T, S, Q, R, P

[P] NCc1ccc(NC(=O)CN2CCCCC(NC(=O)c3ccc(-c4ccccc4)cc3)C2=O)cc1 (stereo not given)
[Q] NCc1cccc(CNC(=O)CN2CCCCC(NC(=O)c3ccc(-c4ccccc4)cc3)C2=O)c1 (stereo not given)
Req: // which entry has the larger IC50 value, P or Q ? Provide the label of your selected option as the answer.
Resp: Q

---

# SYSTEM: Serine protease 1 (Homo sapiens)
# Sequence (P07477 whole entry): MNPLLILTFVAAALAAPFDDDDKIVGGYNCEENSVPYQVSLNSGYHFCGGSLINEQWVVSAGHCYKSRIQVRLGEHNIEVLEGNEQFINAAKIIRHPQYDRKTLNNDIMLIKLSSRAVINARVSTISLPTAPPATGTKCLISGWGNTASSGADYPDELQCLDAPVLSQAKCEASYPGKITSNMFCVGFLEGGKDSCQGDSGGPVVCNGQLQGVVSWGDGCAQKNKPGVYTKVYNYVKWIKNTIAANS
# MEASUREMENT NOTES: Compound was tested for inhibition of human trypsin
# Set-up: reference not given here
OBSERVATION TYPE: selectivity ratio

{"COMPOUND": "NCc1cccc(NC(=O)CN2CCCCC(NC(=O)c3ccc(-c4ccccc4)cc3)C2=O)c1 (centres undefined)", "selectivity ratio": "> 130"}
{"COMPOUND": "Cc1ccc(CN)cc1NC(=O)CN1CCCCC(NC(=O)c2ccc(-c3ccccc3)cc2)C1=O (centres undefined)", "selectivity ratio": "> 450"}
{"COMPOUND": "NCc1cccc(NC(=O)CN2CCCCC(NC(=O)CC(c3ccccc3)c3ccccc3)C2=O)c1 (centres undefined)", "selectivity ratio": "> 170"}

Moving on to another compound below.
Req: Form entry - test system: Serine protease 1 (Homo sapiens); read-out: selectivity ratio; compound: NCc1ccc(Cl)c(NC(=O)CN2CCCCC(NC(=O)c3ccc(-c4ccccc4)cc3)C2=O)c1 (centres undefined)
Resp: 360
